system: HIV-1 (strain LAV-1); experiment: Inhibition of HIV replication in PBM cells (supernatant RT activity); format: cell-based; details: Human immunodeficiency virus 1, PBMC; read-out: EC50, inhibition of HIV replication in PBM cells
readout.type: EC50
Put down the number, then write its unit next to it.

The compound C[n+]1ccc(-c2c3nc(c(-c4ccccc4)c4ccc([nH]4)c(-c4ccccc4)c4nc(c(-c5cc[n+](C)cc5)c5ccc2[nH]5)C=C4)C=C3)cc1 on HIV-1 (strain LAV-1): EC50 was 430 nM
